System: E. faecalis NCTC 12201 vanA resistant
EXPERIMENT_DESCRIPTION: MIC by microbroth dilution
Format: cell-based, Enterococcus faecalis
EXPERIMENTAL_CONDITIONS: Enterococcus faecalis, NCTC12201
MEASURED_QUANTITY: MIC

- COMPOUND: "CCSc1nnc(CCCn2cnc3c(N)ncnc32)n1-c1ccccc1 [17a]"
  MIC: "64 µg/mL"

*Q* Looking for the measured MIC of CCSc1nnc(CCCn2cnc3ccccc32)n1-c1ccccc1 [16a] , can you help?
*A* > 128 µg/mL

*Q* Same read-out for CCCSc1nnc(CCCn2cnc3c(N)ncnc32)n1-c1ccccc1 [17b] ?
*A* > 128 µg/mL

*Q* Same read-out for CC1(C)S[C@@H]2[C@H](NC(=O)[C@H](N)c3ccccc3)C(=O)N2[C@H]1C(=O)O [Amp, ampicillin, reference compound] ?
*A* 16 µg/mL

====

EXPERIMENTAL_SYSTEM: P. aeruginosa PheRS (Pseudomonas aeruginosa, UniProt Q9I0A3)
Sequence (Q9I0A3 whole entry): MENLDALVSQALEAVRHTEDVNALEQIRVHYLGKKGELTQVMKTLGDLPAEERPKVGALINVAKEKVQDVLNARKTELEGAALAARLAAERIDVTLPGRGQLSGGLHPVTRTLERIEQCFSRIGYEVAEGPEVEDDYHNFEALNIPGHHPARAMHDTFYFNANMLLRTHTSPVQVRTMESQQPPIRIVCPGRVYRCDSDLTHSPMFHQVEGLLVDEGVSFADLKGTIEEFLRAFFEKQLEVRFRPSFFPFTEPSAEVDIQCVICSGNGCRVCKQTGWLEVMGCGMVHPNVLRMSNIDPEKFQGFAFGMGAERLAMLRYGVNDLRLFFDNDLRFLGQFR
Sequence (Q9I0A4 whole entry partner): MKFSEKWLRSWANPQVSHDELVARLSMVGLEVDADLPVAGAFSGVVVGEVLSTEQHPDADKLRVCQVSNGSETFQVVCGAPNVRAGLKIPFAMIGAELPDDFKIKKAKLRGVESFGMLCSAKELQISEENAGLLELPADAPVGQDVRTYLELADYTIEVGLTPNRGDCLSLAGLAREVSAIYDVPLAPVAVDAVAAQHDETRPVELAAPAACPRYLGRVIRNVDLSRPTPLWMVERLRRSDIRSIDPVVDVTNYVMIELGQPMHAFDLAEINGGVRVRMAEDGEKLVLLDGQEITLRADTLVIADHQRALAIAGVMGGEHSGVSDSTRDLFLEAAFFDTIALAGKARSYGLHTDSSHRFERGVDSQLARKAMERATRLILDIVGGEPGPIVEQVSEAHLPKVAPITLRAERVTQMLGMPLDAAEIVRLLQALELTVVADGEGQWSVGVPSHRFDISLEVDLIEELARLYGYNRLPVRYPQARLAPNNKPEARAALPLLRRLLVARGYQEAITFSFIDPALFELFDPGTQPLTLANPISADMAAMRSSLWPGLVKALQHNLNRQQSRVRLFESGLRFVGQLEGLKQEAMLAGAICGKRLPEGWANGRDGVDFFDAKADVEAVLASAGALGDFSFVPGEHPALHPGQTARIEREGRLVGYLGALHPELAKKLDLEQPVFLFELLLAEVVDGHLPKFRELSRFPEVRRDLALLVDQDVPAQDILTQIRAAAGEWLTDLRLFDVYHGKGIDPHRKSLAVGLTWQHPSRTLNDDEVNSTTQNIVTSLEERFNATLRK
EXPERIMENT_DESCRIPTION: tRNA aminoacylation scintillation proximity assay, P. aeruginosa PheRS
Format: biochemical
EXPERIMENTAL_CONDITIONS: read-out: P. aeruginosa PheRS IC50; aminoacylation SPA, 0.08 μM enzyme
MEASURED_QUANTITY: pIC50
Here pIC50 is given on a logarithmic scale as minus log10 of the concentration in mol/L.

*Q* Missing value: pIC50, P. aeruginosa PheRS (Pseudomonas aeruginosa, UniProt Q9I0A3), entry O=C(Nc1nnc(CCn2cnc3ccccc32)s1)c1ccc(F)cc1 [11b] . Fill in?
*A* 3.04

====

# key: entry, value: MIC
Tested on: S. aureus NCTC 12493 mecA resistant
EXPERIMENT_DESCRIPTION: MIC by microbroth dilution
Assay type: cell-based
EXPERIMENTAL_CONDITIONS: Staphylococcus aureus, NCTC12493

Solved cases (3 shown):
- COMPOUND: "CCSc1nnc(CCCn2cnc3c(N)ncnc32)n1-c1ccccc1 [17a]"
  MEASURED: "128 µg/mL"
- COMPOUND: "CC1(C)S[C@@H]2[C@H](NC(=O)[C@H](N)c3ccccc3)C(=O)N2[C@H]1C(=O)O [Amp, ampicillin, reference compound]"
  MEASURED: "> 128 µg/mL"
- COMPOUND: "CCSc1nnc(CCCn2cnc3ccccc32)n1-c1ccccc1 [16a]"
  MEASURED: "> 128 µg/mL"

*Q* Looking for the measured MIC of CCCSc1nnc(CCCn2cnc3c(N)ncnc32)n1-c1ccccc1 [17b] , can you help?
*A* > 128 µg/mL

====

EXPERIMENTAL_SYSTEM: P. aeruginosa PheRS (Pseudomonas aeruginosa)
EXPERIMENT_DESCRIPTION: tRNA aminoacylation scintillation proximity assay, P. aeruginosa PheRS
Assay type: biochemical
MEASURED_QUANTITY: IC50 (µM)
Expressed in µM, but write only the number.

*Q* Looking for the measured IC50 of COc1cc(OC)cc(C(=O)Nc2nnc(CCn3cnc4ccccc43)s2)c1 [11a] , can you help?
*A* 742

*Q* Same read-out for CCCSc1nnc(CCCn2cnc3ccccc32)n1-c1ccccc1 [16b] ?
*A* 375

*Q* Same read-out for CCSc1nnc(CCCn2cnc3ccccc32)n1-c1ccccc1 [16a] ?
*A* 343

*Q* Same read-out for CCCSc1nnc(CCCn2cnc3c(N)ncnc32)n1-c1ccccc1 [17b] ?
*A* 294

*Q* Same read-out for CCSc1nnc(CCCn2cnc3c(N)ncnc32)n1-c1ccccc1 [17a] ?
*A* 199
